# method summary: Confirmation screen for delayed death inhibitors of the malarial parasite plastid, 96 hour incubation; note: nearly all actives have a fitted effect of over 60% in size; note: potency is the fitted concentration of half-maximal effect
# experimental context: P. falciparum luciferase growth in erythrocytes; series mostly up to 28.7 µM
The campaign covered roughly 2,300 compounds. About 1,400 (61%) were called active. Inconclusive results (about 29%) are left out. So high a share suggests a set chosen from earlier hits. The list shows a part of the results.
measured metric: Potency

Entry COc1ccc(-c2cc(-c3ccccc3)nc(SC(C)C(=O)O)c2C#N)cc1 (centres undefined) — recorded Potency = 10 µM (active)

Entry COc1ccccc1OCC(=O)Nc1cc(Cl)ccc1Oc1ccccc1 — recorded Potency = inactive

Entry CC(C)C(=O)NCCSc1c[nH]c2ccccc12 — recorded Potency = 3.98 µM (active)

Entry O=C(Nc1ccc(C2=NCCN2)cc1)c1ccc(C(=O)Nc2ccc(C3=NCCN3)cc2)c(Cl)c1 — recorded Potency = 0.0708 µM (active)

Entry Cn1nc(C(F)(F)F)c(C(=O)Nc2ccc(F)cc2F)c1Sc1ccc(C(F)(F)F)cc1 — recorded Potency = 7.94 µM (active)

---
Entry COc1ccc(CCNS(=O)(=O)c2ccc(Br)s2)cc1 — recorded Potency = inactive

Entry Cc1ccccc1OCC(=O)NCCC1=CCCCC1 — recorded Potency = inactive

Entry CCOc1cc(/C=C/c2cc(C(F)(F)F)[nH]c(=O)n2)ccc1O — recorded Potency = 14.1 µM (active)

Entry CCc1ccc(C2c3[nH]c4ccccc4c3CCN2C(=O)c2cc(C)nn2C)cc1 (centres undefined) — recorded Potency = 3.55 µM (active)

----------
# method summary: Confirmation screen for delayed death inhibitors of the malarial parasite plastid, 96 hour incubation; note: nearly all actives have a fitted effect of over 60% in size
# experimental context: P. falciparum luciferase growth in erythrocytes; series mostly up to 28.7 µM
In all, about 2,300 compounds went through this assay and about 1,400 (61%) were called active. Roughly 29% stayed inconclusive and do not appear here. Calls come from the whole dose curve; as a rule, active = well fitted inhibition curve with a large enough effect; inconclusive = small, poorly fitted or top-dose-only effect, or effect the other way; inactive = no such curve, though single readings can be large or run the other way. So high a share suggests a set chosen from earlier hits. The list shows a part of the results.
Answer with one of the outcomes T for active, F for inactive

Identify the outcome logged in this assay for the compound shown: CCn1c(SCC(=O)Nc2ccc(C)cc2)nc2sc3c(c2c1=O)CCN(C)C3
T

Identify the outcome logged in this assay for the compound shown: CCOc1ccccc1NC(=O)NC1Cc2ccccc2C1
T

Identify the outcome logged in this assay for the compound shown: COc1ccc(Cc2nc3ccc(C(=O)NCCc4ccccn4)cc3o2)cc1OC
T

Identify the outcome logged in this assay for the compound shown: O=C(CCCN1C(=O)/C(=C/c2cccs2)SC1=S)Nc1ccc(O)cc1
T

Identify the outcome logged in this assay for the compound shown: COc1ccc(Cl)cc1NC(=O)c1noc(C)c1[N+](=O)[O-]
T

----------
# method summary: Confirmation screen for delayed death inhibitors of the malarial parasite plastid, 96 hour incubation; note: nearly all actives have a fitted effect of over 60% in size
# experimental context: P. falciparum luciferase growth in erythrocytes; series mostly up to 28.7 µM
The campaign covered roughly 2,300 compounds. About 1,400 (61%) were called active. About 29% were inconclusive and are not listed. Calls follow the shape of the dose curve; as a rule, active = well fitted inhibition curve with a large enough effect; inconclusive = small, poorly fitted or top-dose-only effect, or effect the other way; inactive = no such curve, though single readings can be large or run the other way. The set was probably picked from earlier hits. Some of the results follow.
Answer with one of the outcomes Y for active, N for inactive

Solved entries:
Identify the outcome logged in this assay for the molecule shown: COc1cccc2sc(Nc3nnc(-c4ccccc4Cl)o3)nc12
N

Identify the outcome logged in this assay for the molecule shown: Cc1ccc(C(=O)Nc2ccccc2SCC2CSc3nc4ccccc4c(=O)n32)cc1 (stereo not drawn)
Y

Identify the outcome logged in this assay for the molecule shown: CC1=NNC(=O)/C1=C\c1cn(-c2ccccc2)nc1-c1cccs1
Y

Identify the outcome logged in this assay for the molecule shown: COc1cccc2sc(Nc3nnc(-c4ccc(F)cc4)o3)nc12
Y

Identify the outcome logged in this assay for the molecule shown: O=C(Nc1ccccc1)C1=C[C@@H](C2CCCCC2)C[C@@H](OCc2ccc(CO)cc2)O1
Y

Identify the outcome logged in this assay for the molecule shown: O=C(O)c1ccc(O)cc1O
Y

Identify the outcome logged in this assay for the molecule shown: COc1ccc2[nH]cc(CCCN3C(=O)c4ccccc4C3=O)c2c1
N

Identify the outcome logged in this assay for the molecule shown: Cc1cccc(C(=O)Nc2ccccc2SCC2CSc3nc4ccccc4c(=O)n32)c1 (stereo not drawn)
Y

Identify the outcome logged in this assay for the molecule shown: Cc1nn2c(Nc3ccccc3)c3c(nc2c1-c1ccccc1)CCC3
Y

Identify the outcome logged in this assay for the molecule shown: O=C(Nc1ccccc1SCC1CSc2nc3ccccc3c(=O)n21)c1ccccc1 (stereo not drawn)
Y

---
Identify the outcome logged in this assay for the molecule shown: O=C(NCc1ccccc1)C1=C[C@@H](c2coc3ccccc3c2=O)C[C@@H](OCc2ccc(CO)cc2)O1
Y

Identify the outcome logged in this assay for the molecule shown: CCCCN1/C(=C/c2cccc[n+]2C)Sc2cc(NC(C)=O)ccc21
Y

Identify the outcome logged in this assay for the molecule shown: C=CCOc1ccc(/C=C\c2nc(O)c([N+](=O)[O-])c(=O)[nH]2)cc1OC
Y

Identify the outcome logged in this assay for the molecule shown: CCOc1ccccc1CNC(=O)c1cc2oc3ccccc3c2n1C
Y

Identify the outcome logged in this assay for the molecule shown: COc1ccc(N(CC(=O)NCCSCc2ccc(C)cc2)S(=O)(=O)c2ccccc2)cc1
Y

Identify the outcome logged in this assay for the molecule shown: O=C(COC(=O)c1ccc(O)cc1O)Nc1ccc2ccccc2c1
N

Identify the outcome logged in this assay for the molecule shown: COc1ccc2[nH]cc(C(=O)CCl)c2c1
Y

Identify the outcome logged in this assay for the molecule shown: CCCCCCCNC(=O)C1(CC2CC(c3ccc(Cl)cc3)=NO2)CCN(C(=O)Cc2ccc(F)cc2)CC1 (stereo not drawn)
Y

----------
# method summary: Confirmation screen for delayed death inhibitors of the malarial parasite plastid, 96 hour incubation; note: nearly all actives have a fitted effect of over 60% in size
# experimental context: P. falciparum luciferase growth in erythrocytes; series mostly up to 28.7 µM
About 1,400 (61%) of roughly 2,300 compounds were called active. Roughly 29% stayed inconclusive and do not appear here. Calls follow the shape of the dose curve; as a rule, active = well fitted inhibition curve with a large enough effect; inconclusive = small, poorly fitted or top-dose-only effect, or effect the other way; inactive = no such curve, though single readings can be large or run the other way. So high a share suggests a set chosen from earlier hits. The list shows a part of the results.
Answer with one of the outcomes Yes for active, No for inactive

Solved entries:
Identify the outcome logged in this assay for the molecule shown: Oc1ccc(Cl)cc1CNc1cnc2ccccc2c1
Yes

Identify the outcome logged in this assay for the molecule shown: CC(=O)c1c(C)cc(C)c(CSc2nc(C)cc(=O)[nH]2)c1C
No

Identify the outcome logged in this assay for the molecule shown: CCN(CC)Cc1cc2[nH]c3c4ccc(Cl)cc4ncc3c2cc1OC
Yes

Identify the outcome logged in this assay for the molecule shown: CCOC(=O)c1c(S(=O)(=O)NCC(=O)N2CCN(c3ccccc3OC)CC2)c(C)n(C)c1C
Yes

Identify the outcome logged in this assay for the molecule shown: COc1cccc(C(=O)NC2CC(C)(C)Cc3c2cnn3-c2cccc(F)c2)c1OC (stereo unspecified)
Yes

Identify the outcome logged in this assay for the molecule shown: S=C(NCc1ccncc1)Nc1ccc(Br)cc1Cl
Yes

Identify the outcome logged in this assay for the molecule shown: Cc1ccc(S(=O)(=O)Nc2cc(=O)[nH]c(SCc3ccc(Cl)cc3)n2)cc1
Yes

Identify the outcome logged in this assay for the molecule shown: CSc1ncccc1C(=O)NC1CC(C)(C)Cc2c1cnn2-c1ccccc1C (stereo unspecified)
Yes

---
Identify the outcome logged in this assay for the molecule shown: CCOc1ccc2c(c1)C(N(CCN1CCOCC1)C(=O)Nc1ccccc1)CC(C)(C)O2 (stereo unspecified)
Yes

Identify the outcome logged in this assay for the molecule shown: Cc1cc(NC(=O)CSc2sc3c(O)cc(=O)[nH]c3c2C#N)ccc1Br
Yes

Identify the outcome logged in this assay for the molecule shown: CC(=O)N1c2ccc(S(=O)(=O)NCCC(=O)NC3CCCC(C)C3C)cc2CC1C (stereo unspecified)
Yes

Identify the outcome logged in this assay for the molecule shown: COc1ccc(OC)c(C(=O)NC2CC(C)(C)Cc3c2cnn3-c2ccccc2)c1 (stereo unspecified)
Yes

Identify the outcome logged in this assay for the molecule shown: CCc1ccc(NC2=CC(=O)C(=O)c3ccccc32)cc1
Yes

Identify the outcome logged in this assay for the molecule shown: COc1ccc(-n2c(=O)/c(=C\c3cccs3)s/c2=C(/C#N)C(=O)N2CCN(C)CC2)cc1
No

Identify the outcome logged in this assay for the molecule shown: CC(=O)N1CCc2cc(S(=O)(=O)NCCC(=O)N3CCN(c4ccccn4)CC3)ccc21
Yes

Identify the outcome logged in this assay for the molecule shown: CCCCC1(c2ccc(F)cc2)NC(=O)N(CC(=O)N2CCN(C(=O)c3ccco3)CC2)C1=O (stereo unspecified)
Yes

----------
# method summary: Confirmation screen for delayed death inhibitors of the malarial parasite plastid, 96 hour incubation; note: nearly all actives have a fitted effect of over 60% in size
# experimental context: P. falciparum luciferase growth in erythrocytes; series mostly up to 28.7 µM
# Description: The goal of this screen is to discover new antimalarial compounds that act by inhibiting the development of the apicoplast in the malarial parasite Plasmodium falciparum. The biochemical processes that make this organelle essential for erythrocytic stage parasites are not well understood. […] Growth inhibition is detected by a decrease in luciferase activity. […]
Hit rate of the full screen: of about 2,300 compounds, about 1,400 (61%) were called active. Inconclusive results (about 29%) are left out. Calls come from the whole dose curve; as a rule, active = well fitted inhibition curve with a large enough effect; inconclusive = small, poorly fitted or top-dose-only effect, or effect the other way; inactive = no such curve, though single readings can be large or run the other way. The set was probably picked from earlier hits. Some of the results follow.
Answer with one of the outcomes active, inactive

Solved entries:
Identify the outcome logged in this assay for the compound shown: O=c1[nH]c(C(F)(F)F)nc2ccc3ccccc3c12
inactive

Identify the outcome logged in this assay for the compound shown: O=C(/C=C/c1ccccc1)/C=C/c1ccccc1
active

Identify the outcome logged in this assay for the compound shown: Cc1ccc(-n2cc(CN3CCC(CO)(Cc4cccc(C(F)(F)F)c4)CC3)cn2)cc1
active

Identify the outcome logged in this assay for the compound shown: CCOC(=O)C1=C(C)NC(C)=C(C(=O)OCC)C1c1cc(N)ccc1OC(F)F
active

Identify the outcome logged in this assay for the compound shown: COC(=O)c1ccc(COc2ccc(-c3nnn(CC(N)=O)n3)cc2)cc1
active

Identify the outcome logged in this assay for the compound shown: O=C(c1ccc(CS(=O)c2ccccc2Cl)o1)N1CCN(c2ccccn2)CC1 (centres undefined)
active

---
Identify the outcome logged in this assay for the compound shown: O=C(c1ccc(CS(=O)c2ccccc2Cl)o1)N1CCCCCC1 (centres undefined)
active

Identify the outcome logged in this assay for the compound shown: CO[C@@H]1[C@@H](OC2OC(C)C(OC3CC(C)(O)C(OC(=O)CC(C)C)C(C)O3)C(N(C)C)C2O)[C@@H](CC=O)C[C@@H](C)C(=O)/C=C\C2O[C@H]2C[C@@H](C)OC(=O)C[C@H]1OC(C)=O (some centres undefined)
active

Identify the outcome logged in this assay for the compound shown: CCc1ccccc1Nc1nc(N)nc(COC(=O)CCC(=O)c2ccc(F)cc2)n1
active

Identify the outcome logged in this assay for the compound shown: N#CC(C#N)=C1C=CC=CN1/C(=C\c1ccco1)C(=O)c1ccc(-c2ccccc2)cc1
active

Identify the outcome logged in this assay for the compound shown: O=C(/C=C/c1cccnc1)c1ccc(O)cc1
active

Identify the outcome logged in this assay for the compound shown: COc1ccc2c(C)c(CCC(=O)NC3CC3)c(=O)oc2c1C
active

Identify the outcome logged in this assay for the compound shown: CN1C(=O)Cc2cc(S(=O)(=O)N3CCN(c4cccc(C(F)(F)F)c4)CC3)ccc21
active

Identify the outcome logged in this assay for the compound shown: O=C(Nc1cccc(Br)c1)c1ccc2snnc2c1
inactive
